test: Octanol-water partition coefficient, log P of the compound; format: physicochemical
quantity name: logP

>>> df
                                   compound  recorded_measurement
0  CC(N)Cc1ccc2c(c1)OC(C)O2 (stereo not drawn)                   2.1
1  CC(N)Cc1ccc2c(c1)OCO2 (stereo not drawn)                  1.64
2  CC(N)Cc1ccc2c(c1)OC(C)(C)O2 (stereo not drawn)                   2.6
